meta.source: patent US20240385190A1

Measured absorbance by item
Target: FN1
Experiment: ELISA
Give only the figure.

KPEP11_04 (antibody, V domains shown, Rabbit IgG/kappa; Used HRP-labeled as detection antibody in the sandwich ELISAs; also called anti-human EphA4 rabbit monoclonal antibody KPEP11_04; HRP-labeled KPEP11_04) VH: QEQLKESGGRLVTPGGSLTLTCTVSGIDLSSYAMSWVRQAPEKGLEWIGFINMYGTYYASWAKGRFTISRTSTTVDLKVTSLTTEDTATYFCVRGGRSPDYDIVSGDIWGPGTLVTVSS VL: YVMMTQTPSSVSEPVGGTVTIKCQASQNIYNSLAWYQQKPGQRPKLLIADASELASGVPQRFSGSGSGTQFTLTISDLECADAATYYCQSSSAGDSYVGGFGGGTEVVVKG : 0.225
KPEP11_20 (antibody, V domains shown, Rabbit IgG; also called anti-human EphA4 rabbit monoclonal antibody KPEP11_20) VH: QSLEESGGRLVTPGTPLTLTCTVSGFSLNNYYMNWVRQAPGKGLEWIGIIYPDIDTTDYASWVKGRFTISKTSTTVDLKITSPTTEDTATYFCARSDIDYYTTRLDLWGQGTLVTISS VL: AQVLTQTPSPVSAAVGGTVSINCQSSPSVYNNNWLSWFQQKPGQPPKLLIYGASTLASGVPSRFKGSGSGTQFTLTISDVQCDDAATYYCAGGYDSNSDTAFGGGTELEILG : 0.207

Switching to the query record.
Field request: absorbance | item: KPEP11_07 (antibody, V domains shown, Rabbit IgG; also called anti-human EphA4 rabbit monoclonal antibody KPEP11_07) VH: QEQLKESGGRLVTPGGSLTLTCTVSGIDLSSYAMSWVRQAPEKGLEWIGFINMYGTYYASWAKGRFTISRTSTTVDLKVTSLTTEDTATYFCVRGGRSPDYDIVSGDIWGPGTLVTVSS VL: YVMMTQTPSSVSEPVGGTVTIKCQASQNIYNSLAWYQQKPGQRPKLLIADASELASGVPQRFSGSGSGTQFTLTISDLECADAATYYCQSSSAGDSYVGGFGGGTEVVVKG
0.226
